Data credit: PubChem BioAssay AID1745844

- Test system: rodent lifetime carcinogenesis bioassay, tumor incidence TD50
- procedure summary: carcinogenic potency in animals, long-term in vivo studies, CPDB compilation (AID 1745844)
- test context: mouse; strain Swiss; females; i.p.; site: spleen; lesion: hemangioendothelioma; dosed 26 weeks; study length 61 weeks
assay metric: TD50

QUERY: Field request: TD50 | item: `CN(C)N=Nc1nc[nH]c1C(N)=O`
RESULT: 14.5 mg/kg/day

---

- System: rodent lifetime carcinogenesis bioassay, tumor incidence TD50
- procedure summary: carcinogenic potency in animals, long-term in vivo studies, CPDB compilation (AID 1745844)
- test context: mouse; strain B6C3F1; males; in feed; site: liver; lesion: several types; types named in the paper; dosed 78 weeks; study length 78 weeks
assay metric: TD50

{"smiles entry": "C#CC(C)(C)NC(=O)c1cc(Cl)cc(Cl)c1", "TD50": "700 mg/kg/day"}

Then there is this compound:
QUERY: Fill blank: measured TD50 of the compound `O=C(O)c1cc(Oc2ccc(C(F)(F)F)cc2Cl)ccc1[N+](=O)[O-]` is ____.
RESULT: 149 mg/kg/day

---

- Test system: rodent lifetime carcinogenesis bioassay, tumor incidence TD50
- procedure summary: carcinogenic potency in animals, long-term in vivo studies, CPDB compilation (AID 1745844)
- test context: rat; strain Fischer 344; males; inhaled; site: nasal cavity, respiratory epithelium; lesion: squamous-cell carcinoma; dosed 102 weeks; study length 105 weeks
assay metric: TD50 (mg/kg/day)
Answers are plain numbers, in mg/kg/day.

QUERY: # input compound: `OCc1ccco1` ; wanted: its TD50
RESULT: 46.4

---

- Tested on: rodent lifetime carcinogenesis bioassay, tumor incidence TD50
- procedure summary: carcinogenic potency in animals, long-term in vivo studies, CPDB compilation (AID 1745844)
- test context: mouse; strain CD-1 HaM/ICR; females; in feed; site: any site (literature study); lesion: several types; types named in the paper; dosed 68 weeks; study length 90 weeks
assay metric: TD50 (mg/kg/day)
Answers are plain numbers, in mg/kg/day.

QUERY: Return reported TD50; argument: `Cc1ccccc1N`
RESULT: 699

---

- Tested on: rodent lifetime carcinogenesis bioassay, tumor incidence TD50
- procedure summary: carcinogenic potency in animals, long-term in vivo studies, CPDB compilation (AID 1745844)
- test context: mouse; strain B6C3F1; females; in feed; site: Harderian gland; lesion: adenoma, NOS + carcinoma, NOS + cystadenoma, NOS; dosed 103 weeks; study length 105 weeks
assay metric: TD50

QUERY: Which measured TD50 value corresponds to `N=C1C=CC(=C(c2ccc(N)cc2)c2ccc(N)cc2)C=C1` ?
RESULT: 388 mg/kg/day

---

- Test system: rodent lifetime carcinogenesis bioassay, tumor incidence TD50
- procedure summary: carcinogenic potency in animals, long-term in vivo studies, CPDB compilation (AID 1745844)
- test context: mouse; strain B6C3F1; males; in feed; site: thyroid gland; lesion: follicular-cell adenoma; dosed 84 weeks; study length 88 weeks
assay metric: TD50

QUERY: Which TD50 is listed for `O=c1cc(CO)occ1O` ?
RESULT: 927 mg/kg/day

---

- Tested on: rodent lifetime carcinogenesis bioassay, tumor incidence TD50
- procedure summary: carcinogenic potency in animals, long-term in vivo studies, CPDB compilation (AID 1745844)
- test context: rat; strain Fischer 344; females; in drinking water; site: liver; lesion: neoplastic nodule; dosed 75 weeks; study length 130 weeks
assay metric: TD50

QUERY: For the compound shown here, `O=NN(CCO)CCO` , give the reported TD50.
RESULT: 2.93 mg/kg/day

---

- System: rodent lifetime carcinogenesis bioassay, tumor incidence TD50
- procedure summary: carcinogenic potency in animals, long-term in vivo studies, CPDB compilation (AID 1745844)
- test context: mouse; strain BALB/c; females; by gavage; site: nasal mucosa; lesion: several types; types named in the paper; dosed 30 weeks; study length 49 weeks
assay metric: TD50

QUERY: // query TD50 value for entry `O=NN1CCCCCC1`
RESULT: 4.5 mg/kg/day

---

- Test system: rodent lifetime carcinogenesis bioassay, tumor incidence TD50
- procedure summary: carcinogenic potency in animals, long-term in vivo studies, CPDB compilation (AID 1745844)
- test context: hamster; strain Syrian Golden; females; by gavage; site: nasal mucosa; lesion: carcinoma; dosed 41 weeks; study length 81 weeks
assay metric: TD50 (mg/kg/day)
Give bare numbers, in mg/kg/day.

QUERY: Look up TD50: CN(CC(O)CO)N=O (stereo unspecified)
RESULT: 1.51

---

- Tested on: rodent lifetime carcinogenesis bioassay, tumor incidence TD50
- procedure summary: carcinogenic potency in animals, long-term in vivo studies, CPDB compilation (AID 1745844)
- test context: mouse; strain B6C3F1; females; inhaled; site: all sites; lesion: malignant lymphoma, mixed type + malignant lymphoma, lymphocytic type + malignant lymphoma, undifferentiated type + malignant; dosed 83 weeks; study length 104 weeks
assay metric: TD50

QUERY: What value of TD50 has been reported for the following compound? `C=CC=C`
RESULT: 35.2 mg/kg/day

---

- System: rodent lifetime carcinogenesis bioassay, tumor incidence TD50
- procedure summary: carcinogenic potency in animals, long-term in vivo studies, CPDB compilation (AID 1745844)
- test context: mouse; strain ICR/Jcl; males; in feed; site: liver; lesion: one or several types; types not named; dosed 102 weeks; study length 106 weeks
Activity calls are given as the source filed them. No rule for the calls is given here.
assay metric: TD50

QUERY: Sample `CCCCOC(=O)c1ccc(O)cc1` — what was its TD50?
RESULT: 27400 mg/kg/day (inactive)

---

- Tested on: rodent lifetime carcinogenesis bioassay, tumor incidence TD50
- procedure summary: carcinogenic potency in animals, long-term in vivo studies, CPDB compilation (AID 1745844)
- test context: mouse; strain CF-1; males; in feed; site: liver; lesion: liver-cell tumor; dosed 110 weeks; study length 110 weeks
assay metric: TD50

QUERY: Requested read-out: TD50. Entry: `ClC1=C(Cl)[C@]2(Cl)[C@@H]3[C@@H]4C[C@@H]([C@H]5O[C@@H]45)[C@@H]3[C@@]1(Cl)C2(Cl)Cl`
RESULT: 1.28 mg/kg/day

---

- System: rodent lifetime carcinogenesis bioassay, tumor incidence TD50
- procedure summary: carcinogenic potency in animals, long-term in vivo studies, CPDB compilation (AID 1745844)
- test context: rat; strain Fischer 344; males; in feed; site: testis; lesion: interstitial-cell adenoma, bilateral + interstitial-cell adenoma; dosed 12 weeks; study length 103 weeks
assay metric: TD50
Respond with a number, then the unit of measure.

QUERY: State the recorded TD50 for this entry: `OCC(CO)(CBr)CBr`
RESULT: 5.94 mg/kg/day

---

- Tested on: rodent lifetime carcinogenesis bioassay, tumor incidence TD50
- procedure summary: carcinogenic potency in animals, long-term in vivo studies, CPDB compilation (AID 1745844)
- test context: rat; strain Osborne-Mendel; males; in feed; site: any site (literature study); lesion: malignant tumor; dosed 117 weeks; study length 117 weeks
Active and inactive are the calls of the source. No rule for the calls is given here.
assay metric: TD50

QUERY: What value of measured TD50 is listed for CC(COc1ccc(C(C)(C)C)cc1)OS(=O)OCCCl (stereo unspecified) ?
RESULT: 101 mg/kg/day (inactive)

---

- System: rodent lifetime carcinogenesis bioassay, tumor incidence TD50
- procedure summary: carcinogenic potency in animals, long-term in vivo studies, CPDB compilation (AID 1745844)
- test context: mouse; strain Charles River CD1; males; inhaled; site: liver; lesion: hepatocellular carcinoma; dosed 78 weeks; study length 78 weeks
Active and inactive are the calls of the source. The rule behind the calls is not given here.
assay metric: TD50

Answer for every listed entry: what is its TD50? The entries follow.
1. CCC(C)=NO
2. CN(C)C=O

RESULT:
810 mg/kg/day
3070 mg/kg/day (inactive)

---

- System: rodent lifetime carcinogenesis bioassay, tumor incidence TD50
- procedure summary: carcinogenic potency in animals, long-term in vivo studies, CPDB compilation (AID 1745844)
- test context: rat; strain Sprague-Dawley; females; i.p.; site: all sites; lesion: lymphoma; dosed 26 weeks; study length 86 weeks
assay metric: TD50

QUERY: State the recorded TD50 for this entry: `CNNCc1ccc(C(=O)NC(C)C)cc1`
RESULT: 5.18 mg/kg/day

---

- System: rodent lifetime carcinogenesis bioassay, tumor incidence TD50
- procedure summary: carcinogenic potency in animals, long-term in vivo studies, CPDB compilation (AID 1745844)
- test context: rat; strain Fischer 344; males; in feed; site: kidney; lesion: tubular carcinoma; dosed 78 weeks; study length 104 weeks
assay metric: TD50

QUERY: I am curious: what TD50 value has been reported for `CC(C)CCCCCCOC(=O)c1ccccc1C(=O)OCCCCCCC(C)C` ?
RESULT: 2960 mg/kg/day

---

- Test system: rodent lifetime carcinogenesis bioassay, tumor incidence TD50
- procedure summary: carcinogenic potency in animals, long-term in vivo studies, CPDB compilation (AID 1745844)
- test context: rat; strain Fischer 344; males; in drinking water; site: liver; lesion: adenoma; dosed 118 weeks; study length 128 weeks
assay metric: TD50 (mg/kg/day)
One number for each entry, in mg/kg/day.

QUERY: Observed TD50 on rodent lifetime carcinogenesis bioassay, tumor incidence TD50 for `CN(CCCC(=O)c1cccnc1)N=O` , please.
RESULT: 0.871
